target: STING (Mus musculus); experiment: Cytokine secretion (ELISA) from DMXAA-activated splenocytes; format: cell-based, C57BL/6 mice; parameters: Splenocytes were recovered from C57BL/6 WT female mice; endogenous in cells; host or cells: primary splenocytes of C57BL/6 mice; conditions: summary over various cell types, DMXAA stimulation
Sequence (Q3TBT3 whole entry): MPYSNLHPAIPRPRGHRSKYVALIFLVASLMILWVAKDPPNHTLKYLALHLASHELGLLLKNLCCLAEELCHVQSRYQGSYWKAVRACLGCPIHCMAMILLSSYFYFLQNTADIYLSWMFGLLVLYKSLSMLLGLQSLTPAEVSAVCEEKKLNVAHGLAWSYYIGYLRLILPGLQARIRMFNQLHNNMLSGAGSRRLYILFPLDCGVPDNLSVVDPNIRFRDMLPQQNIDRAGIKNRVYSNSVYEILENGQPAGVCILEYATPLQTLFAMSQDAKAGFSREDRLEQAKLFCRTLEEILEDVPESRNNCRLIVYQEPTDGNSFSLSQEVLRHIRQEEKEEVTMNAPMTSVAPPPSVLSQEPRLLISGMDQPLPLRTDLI
MEASURED_PROPERTY: Mode of action on STING (overall)

[
  {
    "COMPOUND": "c1ccc(CSc2nnc(CCCCCCCCc3nnc(SCc4ccccc4)o3)o2)cc1 [Compound 2.1]",
    "MEASURED_PROPERTY": "Mode of action on STING (overall)",
    "EXPERIMENTAL_RESULT": "biased agonists"
  },
  {
    "COMPOUND": "Cc1ccc(C(=O)Nc2cnn(-c3ccc(C(=O)N4CCC(c5ccc(F)cc5)C4)cc3)c2)c(C)c1 (stereo not shown) [Compound 6.1]",
    "MEASURED_PROPERTY": "Mode of action on STING (overall)",
    "EXPERIMENTAL_RESULT": "biased agonists"
  }
]
